test system: MDA-MB-231; assay: Growth inhibition of human MDA-MB-231 cells at 10 uM after 72 hrs by luminescence assay; type: functional; conditions: MDA-MB-231, 72 h
Everything with inhibition at 10 µM lower than 60% is no; everything else, including exactly 60%, is yes.

Record excerpt, results attached:
TEST SMILES: CCCCN1CC(=O)N2[C@@H](c3ccc(Cl)cc3Cl)c3[nH]c4ccccc4c3C[C@@H]2C1=O
CLASS LABEL: yes

TEST SMILES: CN1CC(=O)N2[C@H](c3ccc(Cl)cc3Cl)c3[nH]c4ccccc4c3C[C@H]2C1=O
CLASS LABEL: no

TEST SMILES: CC(C)(C)N1C(=O)[C@H]2Cc3c([nH]c4ccccc34)[C@@H](c3ccc(Cl)cc3Cl)N2C1=O
CLASS LABEL: yes

### Prompt Please tell me: is the molecule `COC(=O)[C@@H]1Cc2c([nH]c3ccccc23)[C@@H](c2ccc(Cl)cc2Cl)N1` at or over 60% in terms of inhibition at 10 µM?
### Response no

### Prompt Please tell me: is the molecule `CC(C)(C)N1C(=O)[C@H]2Cc3c([nH]c4ccccc34)[C@H](c3ccc(Cl)c(Cl)c3)N2C1=O` at or over 60% in terms of inhibition at 10 µM?
### Response no

### Prompt Please tell me: is the molecule `CCN1CC(=O)N2[C@H](c3ccc(Cl)cc3Cl)c3[nH]c4ccccc4c3C[C@H]2C1=O` at or over 60% in terms of inhibition at 10 µM?
### Response no

### Prompt Please tell me: is the molecule `CCN1C(=O)[C@@H]2Cc3c([nH]c4ccccc34)[C@@H](c3ccc(Cl)cc3Cl)N2C1=O` at or over 60% in terms of inhibition at 10 µM?
### Response yes

### Prompt Please tell me: is the molecule `CCN1C(=O)[C@@H]2Cc3c([nH]c4ccccc34)[C@H](c3ccc(Cl)cc3Cl)N2C1=O` at or over 60% in terms of inhibition at 10 µM?
### Response no

### Prompt Please tell me: is the molecule `CN1CC(=O)N2[C@H](c3ccc(Cl)cc3Cl)c3[nH]c4ccccc4c3C[C@@H]2C1=O` at or over 60% in terms of inhibition at 10 µM?
### Response no

### Prompt Please tell me: is the molecule `COC(=O)[C@@H]1Cc2c([nH]c3ccccc23)[C@H](c2c(Cl)cccc2Cl)N1C(=O)CCl` at or over 60% in terms of inhibition at 10 µM?
### Response no

### Prompt Please tell me: is the molecule `CC(C)(C)N1CC(=O)N2[C@@H](c3c(Cl)cccc3Cl)c3[nH]c4ccccc4c3C[C@H]2C1=O` at or over 60% in terms of inhibition at 10 µM?
### Response no

### Prompt Please tell me: is the molecule `COC(=O)[C@@H]1Cc2c([nH]c3ccccc23)[C@H](c2ccc(Cl)c(Cl)c2)N1C(=O)CCl` at or over 60% in terms of inhibition at 10 µM?
### Response no

### Prompt Please tell me: is the molecule `CN1CC(=O)N2[C@@H](c3ccc(Cl)cc3Cl)c3[nH]c4ccccc4c3C[C@@H]2C1=O` at or over 60% in terms of inhibition at 10 µM?
### Response yes

### Prompt Please tell me: is the molecule `CC(C)(C)N1C(=O)[C@@H]2Cc3c([nH]c4ccccc34)[C@H](c3ccc(Cl)c(Cl)c3)N2C1=O` at or over 60% in terms of inhibition at 10 µM?
### Response yes

### Prompt Please tell me: is the molecule `CCN1CC(=O)N2[C@@H](c3ccc(Cl)c(Cl)c3)c3[nH]c4ccccc4c3C[C@@H]2C1=O` at or over 60% in terms of inhibition at 10 µM?
### Response no

### Prompt Please tell me: is the molecule `COC(=O)[C@@H]1Cc2c([nH]c3ccccc23)[C@@H](c2ccc(Cl)cc2Cl)N1C(=O)CCl` at or over 60% in terms of inhibition at 10 µM?
### Response yes

### Prompt Please tell me: is the molecule `COC(=O)[C@@H]1Cc2c([nH]c3ccccc23)[C@@H](c2ccc(Cl)c(Cl)c2)N1C(=O)CCl` at or over 60% in terms of inhibition at 10 µM?
### Response no
